Quick reference for IC50 among some molecules
# Test system: L5178Y
# test-name: Cytotoxicity against chemosensitive wild type parental mouse L5178Y cells incubated for 24 hrs by MTT assay
# Format: functional, cell-based

Previously resolved entries follow.
{"smi": "C/C1=C\\[C@@H]2[C@H](CC[C@]3(CO3)[C@H](OC(=O)N(C)C)[C@H]3[C@@H](O)[C@@H](C)C[C@]3(O)C1=O)C2(C)C", "IC50": "> 100 µM"}
{"smi": "C/C1=C\\[C@@H]2[C@H](CC[C@]3(CO3)[C@H](OC(=O)c3cccs3)[C@H]3[C@@H](OC(=O)c4cccs4)[C@@H](C)C[C@]3(O)C1=O)C2(C)C", "IC50": "32.8 µM"}
{"smi": "CCC(=O)OC[C@]1(O)CC[C@H]2[C@@H](/C=C(\\C)C(=O)[C@@]3(O)C[C@H](C)[C@H](OC(=O)CC)[C@@H]3[C@H]1O)C2(C)C", "IC50": "> 100 µM"}
{"smi": "CO[C@H]1[C@@H]2[C@H](CC[C@]3(COC(=O)c4ccccc4)O[C@@H]3[C@H]3[C@@H](OC(=O)c4ccccc4)[C@@H](C)C[C@]3(O)C(=O)[C@@H]1C)C2(C)C", "IC50": "26.1 µM"}
{"smi": "C/C1=C\\[C@@H]2[C@H](CC[C@@](C)(O)[C@H](O)[C@H]3[C@@H](O)[C@@H](C)C[C@]3(O)[C@H]1O)C2(C)C", "IC50": "> 100 µM"}

Suppose we examine the molecule `CO[C@H]1[C@@H]2[C@H](CC[C@]3(COC(=O)c4ccc(C(F)(F)F)cc4)O[C@@H]3[C@H]3[C@@H](OC(=O)c4ccc(C(F)(F)F)cc4)[C@@H](C)C[C@]3(O)C(=O)[C@@H]1C)C2(C)C` ; what IC50 value has been reported?
48 µM

Suppose we examine the molecule `C/C1=C\[C@@H]2[C@H](CC[C@]3(CO3)[C@H](OC(=O)c3ccc(-c4ccccc4)cc3)[C@H]3[C@@H](OC(=O)c4ccc(-c5ccccc5)cc4)[C@@H](C)C[C@]3(O)C1=O)C2(C)C` ; what IC50 value has been reported?
> 100 µM

Suppose we examine the molecule `CO[C@H]1[C@@H]2[C@H](CC[C@]3(COC(C)=O)O[C@@H]3[C@H]3[C@@H](OC(C)=O)[C@@H](C)C[C@]3(O)C(=O)[C@@H]1C)C2(C)C` ; what IC50 value has been reported?
> 100 µM

Suppose we examine the molecule `C/C1=C\[C@@H]2[C@H](CC[C@]3(CO3)[C@H](OC(=O)c3ccc(N(C)C)cc3)[C@H]3[C@@H](OC(=O)c4ccc(N(C)C)cc4)[C@@H](C)C[C@]3(O)C1=O)C2(C)C` ; what IC50 value has been reported?
33.9 µM

Suppose we examine the molecule `C/C1=C\[C@@H]2[C@H](CC[C@]3(CO3)[C@H](OC(=O)C34CC5CC(CC(C5)C3)C4)[C@H]3[C@@H](OC(=O)C45CC6CC(CC(C6)C4)C5)[C@@H](C)C[C@]3(O)C1=O)C2(C)C` ; what IC50 value has been reported?
> 50 µM

Suppose we examine the molecule `C/C1=C\[C@@H]2[C@H](CC[C@@](C)(O)[C@H](O)[C@H]3[C@@H](OC(=O)c4ccccc4)[C@@H](C)C[C@]3(O)[C@H]1O)C2(C)C` ; what IC50 value has been reported?
> 100 µM
